# system tested: cathepsin K (Homo sapiens)
# Sequence (P43235 115-329): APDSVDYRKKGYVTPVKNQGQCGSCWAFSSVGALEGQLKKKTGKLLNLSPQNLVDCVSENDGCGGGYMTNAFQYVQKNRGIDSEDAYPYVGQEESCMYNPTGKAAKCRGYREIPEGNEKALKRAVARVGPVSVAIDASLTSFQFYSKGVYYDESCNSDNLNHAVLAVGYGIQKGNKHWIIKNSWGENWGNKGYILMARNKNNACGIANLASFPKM
# test summary: Determination of cathepsin K proteolytic catalytic activity (H-D-Ala-Leu-Lys-AMC fluorogenic substrate)
# measurement conditions: human recombinant enzyme 5 nM, ambient temperature; read-out: Ki Cat. K
measurement name: pKi
Reminder that pKi means the negative base-10 logarithm of the concentration expressed in mol/L.

Tell me reported pKi for `CC1(C[C@H](NC(=O)N2CCOCC2)C(=O)NC2(C(=O)C(=O)NC3CC3)CCC2)CCCC1` , tested with cathepsin K (Homo sapiens).
5.46

Tell me reported pKi for `CC1(C[C@H](NC(=O)c2ccoc2)C(=O)NC2(C(=O)C(=O)NC3CC3)CC(F)(F)C2)CCCC1` , tested with cathepsin K (Homo sapiens).
5.64

Tell me reported pKi for `CNC(=O)C(=O)C1(NC(=O)[C@H](CC(C)(C)C)NC(=O)c2ccc(NS(=O)(=O)c3ccccc3)cc2)CCC1` , tested with cathepsin K (Homo sapiens).
6.51

Tell me reported pKi for `CC1(C[C@H](NC(=O)N2CCOCC2)C(=O)NC2(C(=O)C(=O)NCCCCl)CCC2)CCCC1` , tested with cathepsin K (Homo sapiens).
5.46
